# Tested on: DYRK1A
# condition.set: concentration: 1 μM, replicates: in singlicate; n = 1;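 further: KINOMEscan kinase panel screen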
test.readout: %Inh
Dear colleague, please send the value followed by its unit.

COc1cccc(C2=C(Nc3cc(Cl)c(O)c(Cl)c3)C(=O)NC2=O)c1: 38%

Record %Inh for all entries; do not skip any.
1. CSc1ccc(-c2nc3n(c2-c2ccncc2)CCC3)cc1
2. NS(=O)(=O)c1cccc(N/C=C2\C(=O)Nc3ccc(S(=O)(=O)Cc4c(Cl)cccc4Cl)cc32)c1
3. CNc1cc(-c2ccc3c(N)n[nH]c3c2)nc(N)n1

Output line:
3%
29%
64%

// sample COc1ccc(CSc2nnc(-c3ccc4ncsc4c3)o2)cc1C(F)(F)F , its %Inh was 36%

###

# Test system: JNK1
# Construct: gene MAPK8
# condition.set: concentration: 1 μM, replicates: in singlicate; n = 1
Class field: derived from %Inh; ranges label 0 = under 5%, label 1 = from 5% up to 30%, label 2 = 30% and over

Answered cases to consult:
CCCCc1nn2ncccc2c1-c1ccnc(NC2CC2)n1: label 2
COc1ccc(CSc2nnc(-c3ccc4ncsc4c3)o2)cc1C(F)(F)F: label 0
CS(=O)(=O)CCNCc1nc(-c2ccc3ncnc(Nc4ccc(OCc5ccccc5)c(Cl)c4)c3c2)cs1.Cl: label 1
CNc1nc(-c2ccc3c(N)n[nH]c3c2)cc(N2C[C@@H](C(=O)NC3CCCCC3)OC[C@H]2C)n1: label 0
COc1ccc(Nc2nccc(N3CCC(NC(=O)C(C)c4ccc(Cl)cc4)C3)n2)cc1 (stereo not drawn): label 1
COc1ccc2cc(-c3nc(-c4ccccc4C(C)C)[nH]c3-c3ccncc3)ccc2c1: label 1
Cc1c(Cn2c(C)c(C)n3c(=O)cc(N4CCOCC4)nc23)cccc1C(F)(F)F: label 2
COC(=O)c1cccc(NC(=O)NC2CCN(c3ccnc(Nc4ccc(OC)cc4)n3)C2)c1 (stereo not drawn): label 2
O=C1NC(=O)C(c2ccc(Cl)cc2)=C1Nc1cccc(Cl)c1: label 2
O=c1cc(N2CCOCC2)nc2n(Cc3ccccc3F)ccn12: label 0

Input line: Assign a bin to COc1cccc(C2=C(Nc3cc(Cl)c(O)c(Cl)c3)C(=O)NC2=O)c1
Output line: label 1

Input line: Assign a bin to Cc1cnc(N)c(/C=C/c2cncc(C(=O)NCCc3ccc(Cl)cc3Cl)c2)c1.Cl
Output line: label 0

Input line: Assign a bin to O=C(Nc1n[nH]c2nc(-c3cccs3)c(Br)cc12)C1CCCC1
Output line: label 2

Input line: Assign a bin to Nc1cccc(-c2ccc3c(N)n[nH]c3c2)n1
Output line: label 0

Input line: Assign a bin to CS(=O)(=O)CCNCc1nc(-c2ccc3ncnc(Nc4ccc5c(cnn5Cc5ccccc5)c4)c3c2)cs1.Cl.Cl
Output line: label 1

Input line: Assign a bin to COc1ccc(CSc2nnc(-c3ccc4c(c3)CCO4)o2)cc1
Output line: label 0

Input line: Assign a bin to O=C1NC(=O)C(c2ccc(Cl)cc2)=C1Nc1ccc(O)cc1
Output line: label 0

Input line: Assign a bin to CC(=O)c1c(C)c2cnc(Nc3ccn(C)n3)nc2n(C2CCCC2)c1=O
Output line: label 1

Input line: Assign a bin to Cc1ccc(NC(=O)Nc2ccc(Cl)c(C(F)(F)F)c2)cc1-c1ccc(C(=O)Nc2ccncc2)cc1
Output line: label 1

Input line: Assign a bin to Fc1ccc(-c2nc[nH]c2-c2ccncc2)cc1
Output line: label 2
